# credit: patent US20240300942A1

- System: eCT26
- TEST_NAME: 3D cell proliferation assay, eCT26 (engineered for KRASG12C mutation)
- Assay type: cell-based
- MEASUREMENT_PARAMETERS: 168 h, 7 day
pIC50: −log10 of the molar value.
VALUE_KIND: pIC50

Ask: Form entry - test system: eCT26; read-out: pIC50; molecule: C=CC(=O)N1CCN(c2nc(OC[C@@H]3CCCN3C)c(C#N)c3c2CCN(c2cccc4cccc(Cl)c24)C3)C[C@@H]1CC#N (single isomer, unassigned) [Ex 25]
Reply: > 7.00

----------
- System: MIAPACA-2 cell line
- TEST_NAME: In vitro cell proliferation assay (CCK-8) in MIAPACA-2 cell line
- Type: cell-based
- MEASUREMENT_PARAMETERS: Homo sapiens, MIA PaCa-2; TC2: Test Concentration of 10 uM; 72 hours
VALUE_KIND: inhibition at 10 µM

The examples below pair each entry with its known result.
COMPOUND	inhibition at 10 µM
C=C(F)C(=O)N1CCN(c2nc(OC[C@@H]3CCCN3C)c(C#N)c3c2CCN(c2cccc4ccccc24)C3)CC1CC#N (stereo partly drawn) [Ex 20]	75 to 100%
C=CC(=O)N1CCN(c2nc(OC[C@@H]3CCCN3C)c(C#N)c3c2CCN(c2cccc4cccc(Cl)c24)C3)CC1CC#N (single isomer, unassigned) [Ex 24]	75 to 100%

Please look at the following compound next.
Ask: inhibition at 10 µM lookup needed for C=CC(=O)N1CCN(c2nc(OC[C@@H]3CCCN3C)c(C#N)c3c2CCN(c2cccc4ccccc24)C3)CC1 [Ex 55] , thanks.
Reply: 75 to 100%
